Origin of values: paper PMC6968643

subject.of.test: recombinant c-Met kinase (Homo sapiens, UniProt P08581)
Sequence (P08581 25-1390): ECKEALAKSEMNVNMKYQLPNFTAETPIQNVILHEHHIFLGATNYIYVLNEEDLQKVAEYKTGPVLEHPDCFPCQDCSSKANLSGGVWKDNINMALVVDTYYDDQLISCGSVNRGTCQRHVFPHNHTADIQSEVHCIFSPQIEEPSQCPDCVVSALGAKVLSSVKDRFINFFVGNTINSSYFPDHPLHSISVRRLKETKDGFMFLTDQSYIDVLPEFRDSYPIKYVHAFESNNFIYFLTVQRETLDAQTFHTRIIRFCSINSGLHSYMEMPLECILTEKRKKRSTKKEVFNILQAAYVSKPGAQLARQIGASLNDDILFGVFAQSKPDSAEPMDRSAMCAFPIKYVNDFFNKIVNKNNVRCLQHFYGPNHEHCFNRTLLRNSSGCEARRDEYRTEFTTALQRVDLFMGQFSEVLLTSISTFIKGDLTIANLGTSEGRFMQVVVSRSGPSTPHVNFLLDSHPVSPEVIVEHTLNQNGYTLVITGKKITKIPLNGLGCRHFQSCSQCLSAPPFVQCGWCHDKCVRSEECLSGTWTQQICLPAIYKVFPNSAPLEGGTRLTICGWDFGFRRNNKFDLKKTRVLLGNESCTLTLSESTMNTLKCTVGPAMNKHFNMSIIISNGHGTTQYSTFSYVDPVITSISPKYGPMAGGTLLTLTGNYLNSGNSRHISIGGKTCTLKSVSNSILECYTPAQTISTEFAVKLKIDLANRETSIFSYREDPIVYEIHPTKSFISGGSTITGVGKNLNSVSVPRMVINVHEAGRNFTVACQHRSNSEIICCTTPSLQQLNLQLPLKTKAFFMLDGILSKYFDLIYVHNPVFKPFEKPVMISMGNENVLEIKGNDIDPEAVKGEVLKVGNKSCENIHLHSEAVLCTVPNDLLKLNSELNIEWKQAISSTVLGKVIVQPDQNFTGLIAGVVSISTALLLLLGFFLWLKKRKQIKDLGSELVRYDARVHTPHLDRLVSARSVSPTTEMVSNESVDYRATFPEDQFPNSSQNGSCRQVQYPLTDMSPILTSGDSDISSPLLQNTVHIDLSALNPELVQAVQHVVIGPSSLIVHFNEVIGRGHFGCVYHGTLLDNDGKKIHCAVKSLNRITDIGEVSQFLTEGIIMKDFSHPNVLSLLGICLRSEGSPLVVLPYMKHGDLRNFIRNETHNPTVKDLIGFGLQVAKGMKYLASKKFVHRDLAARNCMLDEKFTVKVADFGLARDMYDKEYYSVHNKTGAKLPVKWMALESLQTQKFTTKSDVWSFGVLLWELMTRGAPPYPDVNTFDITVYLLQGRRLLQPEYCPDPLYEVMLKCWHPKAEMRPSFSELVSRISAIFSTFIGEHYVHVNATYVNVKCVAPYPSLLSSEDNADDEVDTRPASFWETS
method.notes: Cell-free detection of c-Met kinase activity (ADP-Glo assay)
pIC50: −log10 of the molar value.
Items are presented alongside their recorded pIC50.

Some solved entries appear below for comparison.
> print(dat)
                                   compound  experimental.readout  observed.measurement
1  CC(=O)Nc1cccc(-c2cn(CC(=O)N/N=C/c3cc(Br)ccc3O)nn2)c1 [Compound 10h]                 pIC50                < 4.92
2  O=C(Cn1cc(-c2ccccc2)nn1)N/N=C/c1ccccc1O [Compound 11d]                 pIC50                < 4.92
3  O=C(Cn1cc(-c2ccccc2)nn1)N/N=C/c1ccc(Cl)cc1 [Compound 11a]                 pIC50                < 4.92
4  COc1ccc(/C=N/NC(=O)Cn2cc(-c3ccccc3)nn2)cc1OC [Compound 11j]                 pIC50                  5.51

Q: Form: Entry = COc1ccc(/C=N/NC(=O)Cn2cc(-c3ccccc3)nn2)c(OC)c1 [Compound 11i] | System = recombinant c-Met kinase (Homo sapiens, UniProt P08581) | pIC50 = ____
Ans: < 4.92

Q: Thanks! And CC(=O)Nc1cccc(-c2cn(CC(=O)N/N=C/c3ccc(Cl)cc3)nn2)c1 [Compound 10a] ?
Ans: 8.77

Q: Thanks! And O=C(Cn1cc(-c2ccccc2)nn1)N/N=C/c1cc(Br)cc(Br)c1O [Compound 11g] ?
Ans: < 4.92

Q: Thanks! And CC(=O)Nc1cccc(-c2cn(CC(=O)N/N=C/c3cc(Br)cc(Br)c3O)nn2)c1 [Compound 10g] ?
Ans: 5.05
